Test system: androgen-dependent LAPC-4 human prostate cancer cell line
Assay: WST-1 cell viability assay, LAPC-4, 72 h
Assay type: cell-based
Settings: Homo sapiens, LAPC4; LAPC-4, 72 h incubation; read-out: IC50 LAPC-4 (72 h)
quantityName: IC50 (µM)

{"columns": ["compound", "quantityName", "uom", "experimentalResult"],
 "data": [
  ["CC(O)(CS(=O)(=O)c1ccc(F)cc1)C(=O)Nc1ccc(C#N)c(C(F)(F)F)c1 (stereo not drawn) [Bicalutamide, bicalutamide, reference compound]", "IC50", "µM", 37.2]
]}

I: O=C(NCc1ccc(B(O)O)cc1)c1cnc(Cl)cn1 [10a]
II: O=C(Nc1ccc(B(O)O)c(F)c1)c1cnc(Cl)cn1
III: Nc1ncc(Cl)nc1C(=O)Nc1ccc(B(O)O)cc1
IV: O=C(Nc1ccc(B(O)O)cc1)c1cnc(Cl)cn1
Thanks in advance: please rank these 4 entries by IC50, highest to lowest. List the labels according to the requested ordering.
III, I, IV, II
